system: Enterococcus; experiment: Antibacterial activity against vancomycin resistant Enterococcus ATCC MP-1 assessed as inhibition of bacterial growth by CLSI method; assay type: functional, organism-based
Mark each entry satisfied if its IC50 sits below 8 µg/mL, and not satisfied for all others.

Req: Does `CCCCc1ccc(-c2nc(C[C@H](NC(=O)OC(C)(C)C)C(=O)N[C@@H](Cc3c[nH]c4ccccc34)C(=O)N[C@@H](CCCNC(=N)N)C(=O)NCc3ccccc3)c[nH]2)cc1` have IC50 strictly under 8 µg/mL?
Resp: satisfied

Req: Does `CCCCc1ccc(-c2nc(C[C@H](N)C(=O)N[C@@H](Cc3c[nH]c4ccccc34)C(=O)N[C@@H](CCCNC(=N)N)C(=O)OC)c[nH]2)cc1.Cl.Cl` have IC50 strictly under 8 µg/mL?
Resp: not satisfied

Req: Does `COC(=O)[C@H](CCCNC(=N)N)NC(=O)[C@H](Cc1c[nH]c2ccccc12)NC(=O)[C@@H](N)Cc1c[nH]c(-c2ccc(-c3ccccc3)cc2)n1.Cl.Cl` have IC50 strictly under 8 µg/mL?
Resp: not satisfied

Req: Does `Cc1ccc(-c2nc(C[C@H](NC(=O)OC(C)(C)C)C(=O)N[C@@H](Cc3c[nH]c4ccccc34)C(=O)N[C@@H](CCCNC(=N)N)C(=O)NCc3ccccc3)c[nH]2)cc1` have IC50 strictly under 8 µg/mL?
Resp: not satisfied

Req: Does `CCc1ccc(-c2nc(C[C@H](N)C(=O)N[C@@H](Cc3c[nH]c4ccccc34)C(=O)N[C@@H](CCCNC(=N)N)C(=O)NCc3ccccc3)c[nH]2)cc1.Cl.Cl` have IC50 strictly under 8 µg/mL?
Resp: not satisfied

---

tested on: Vero; experiment: Cytotoxicity against African green monkey Vero cells assessed as reduction in cell viability incubated for 48 hrs by Neutral red assay; assay type: cell-based; conditions: chlorocebus sabaeus
Where a SMILES comes first, the peptide text is derived from it. The star is where a group is joined. Boc = CC(C)(C)OC(=O)*; NHBn = c1ccc(CN*)cc1
readout.type: Activity

Req: Returns the measured Activity for the input compound. Input: `CCCCc1ccc(-c2nc(C[C@H](NC(=O)OC(C)(C)C)C(=O)N[C@@H](Cc3c[nH]c4ccccc34)C(=O)N[C@@H](CCCNC(=N)N)C(=O)OC)c[nH]2)cc1`
Resp: > 10 µg/mL

Req: Returns the measured Activity for the input compound. Input: `CCCCc1ccc(-c2nc(C[C@H](N)C(=O)N[C@@H](Cc3c[nH]c4ccccc34)C(=O)N[C@@H](CCCNC(=N)N)C(=O)OC)c[nH]2)cc1.Cl.Cl`
Resp: > 10 µg/mL

Req: Returns the measured Activity for the input compound. Input: CC(C)(C)OC(=O)N[C@@H](Cc1c[nH]cn1)C(=O)N[C@@H](Cc1c[nH]c2ccccc12)C(=O)N[C@@H](CCCNC(=N)N)C(=O)NCc1ccccc1 (Boc-His-Trp-Arg-NHBn)
Resp: > 10 µg/mL

Req: Returns the measured Activity for the input compound. Input: `COC(=O)[C@H](CCCNC(=N)N)NC(=O)[C@H](Cc1c[nH]c2ccccc12)NC(=O)[C@H](Cc1c[nH]c(-c2ccccc2)n1)NC(=O)OC(C)(C)C`
Resp: > 10 µg/mL

Req: Returns the measured Activity for the input compound. Input: `COC(=O)[C@H](CCCNC(=N)N)NC(=O)[C@H](Cc1c[nH]c2ccccc12)NC(=O)[C@@H](N)Cc1c[nH]c(-c2ccc(C)cc2)n1.Cl.Cl`
Resp: > 10 µg/mL

Req: Returns the measured Activity for the input compound. Input: `CC(C)(C)OC(=O)N[C@@H](Cc1c[nH]c(-c2ccc(-c3ccccc3)cc2)n1)C(=O)N[C@@H](Cc1c[nH]c2ccccc12)C(=O)N[C@@H](CCCNC(=N)N)C(=O)NCc1ccccc1`
Resp: > 10 µg/mL
